All values here come from the supplement of paper PMC9732359.

Assay: protein stability index of a GFP-peptide fusion (yeast GPS) (PSI 1-4); higher = more stable; sorted into four equal gates, so the index is relative within each strain
Conditions: pdr5∆
Short version: protein stability index at least 3 is true, less is false.

Here are 3 sequences together with their reported answers.
Request: Test whether the sequence SVTRAGNIISSDKTIVP [SIN4] records protein stability index of 3 or higher.
Result: false

Request: Dear colleague, could you confirm whether PSLELSAEYLQMSLEAN [YJR042W/NUP85] has protein stability index at or above 3?
Result: false

Request: Please indicate if the recorded protein stability index for SQIRLYAKFKRNTMMIQ [RGR1] meets or exceeds 3.
Result: false

---
Request: Test whether the sequence DRMAKYLHIRDKILQLN [PGD1] records protein stability index of 3 or higher.
Result: false

Request: Item GDDESKIPAVEYFGGES [FAS1] with protein stability index of 3 or above?
Result: true

Request: Say whether KKRKIHNGREGSIEEPE [MCD1] shows protein stability index of 3 or more.
Result: true

Request: Is reported protein stability index greater than or equal to 3 here: ETEFPPFREFLQVLIDQ [ECM29]
Result: true

Request: Kindly determine if protein stability index recorded for LHKLQRMRLRALETENM [GRR1] is above or exactly 3.
Result: false

Request: API: above_or_equal(metric=protein stability index, cutoff=3) for item GSKENYQELGSLQSSSQ [MED2]
Result: true

---

Each entry below carries its recorded protein stability index.
Test: protein stability index of a GFP-peptide fusion (yeast GPS) (PSI 1-4); higher = more stable; sorted into four equal gates, so the index is relative within each strain
Conditions: pdr5∆
# respond with the number and nothing more

As a guide, the following entries are already answered.
Value of measured protein stability index for the entry LILAGQVKVKGQLGEMA [YCS4] : 3.35

The recorded protein stability index for SLNYKFTTNKSKDVSRL [SRP21] is 3.04

Input IFLAERRILPKPSRTSR [RPS7A] . Output protein stability index: 3.15

// sample CKDDVQLQKILESLKPI [MTW1] , its protein stability index was 2.94

Looking up SRENNSEYMVFGKLAFP [YJL039C/NUP192] , I found its protein stability index recorded as 2.54

---
Recorded protein stability index (sequence CVKAIEALFQSRPDILS [YCG1] ): 2.47

Briefly, protein stability index measured for ELLAYQFASPVRWIETQ [FAS2] : 1.86

---

Test: protein stability index of a GFP-peptide fusion (yeast GPS) (PSI 1-4); higher = more stable; sorted into four equal gates, so the index is relative within each strain
Details: pdr5∆
// values below are reported protein stability index
In your answer, state the number alone without any accompanying words.

Here are 4 sequences together with their reported answers.
sequence ERRVLLSAPLSKELRAQ [RPL26B] , protein stability index observed: 2.9

protein stability index measured on FFDGSASSTPIPVLGKP [YOR098C/NUP1] = 2.94

Input SGHDDLVHDVVYDFYGR [YGL100W/SEH1] . Output protein stability index: 2.75

For DQWYCIDKLEDLSRIMD [ITC1] the sequence record lists protein stability index as 2.64

Now for another entry.
GET /value?item= AKGVYRPNGRKDHDLKI [POP1] &field=protein stability index returns 3.08

---

Experiment: protein stability index of a GFP-peptide fusion (yeast GPS) (PSI 1-4); higher = more stable; sorted into four equal gates, so the index is relative within each strain
Details: ubr1∆
Measured Attribute: protein stability index
Answer with a number only.

Solved entries (count: 2):
response.value for VTEDGTVVTVVSTAKFS [RPL22A] (field: protein stability index) = 2.59

protein stability index measured on EKRATSPLLESDSIEKI [PUP2] = 3.23

---
GET /value?item= VHTANFSERGSNTRTMT [MED2] &field=protein stability index returns 3.26

IVDGKLKTEKIFKEINE [FAS1] has a reported protein stability index of 1.91

---

Experiment: protein stability index of a GFP-peptide fusion (yeast GPS) (PSI 1-4); higher = more stable; sorted into four equal gates, so the index is relative within each strain
Conditions: san1∆
protein stability index reference
Give the figure only, with no unit attached.

A selection of reference data follows.
Value of measured protein stability index for the entry ELDEHTTQIDLFRIFSM [BRR2] : 1.61

# protein stability index of LKTRDWIVVLPWFWLLP [POP1] = 1.5

The reported protein stability index of the sequence APSANQGDEALSVDDIR [RTT102] was 2.98

Recorded result, LTATPNSINKTTVPFKE [POP1] , protein stability index: 1.66

sequence ISLLKNRRKQSFVLNKN [RPN4] , protein stability index observed: 3.04

Further cases:
The recorded protein stability index for QLDSKLMVFNDDTKNQD [YGR119C/NUP57] is 2.6

protein stability index reading for TQLSYLISSSLSNLSKD [YCS4] : 1.63

---

Property: protein stability index; scope: individual sequences
Experiment: protein stability index of a GFP-peptide fusion (yeast GPS) (PSI 1-4); higher = more stable; sorted into four equal gates, so the index is relative within each strain
Conditions: ubr1∆
Output spec: single numeric token, no unit.

Known protein stability index results, listed for orientation:
Record VRFIGDSVAAIGIPVNK [QCR2] . Reported protein stability index: 3.02

For record AKLWFYIYLSHETLARS [RPN3] the listed protein stability index is 1.65

Short answer for LCRQGHNMLNLLIHRKG [PRP8] : protein stability index was 2.23

Briefly, protein stability index measured for DLKLPPMDAYLKLNHII [SNU114] : 2.68

New cases:
For this sequence ( QDKDAIRKQPDDIINND [SIR2] ), measured protein stability index is 2.89

# protein stability index of VEECPQYIRTLVSEART [SSN8] = 1.87

Short answer for ISLRNNMFELAQQLVGV [SMC4] : protein stability index was 1.87

The sequence identified as LESDVNIALVSKLRNNI [SRP54] registered its protein stability index at 2.98

---

Experiment: protein stability index of a GFP-peptide fusion (yeast GPS) (PSI 1-4); higher = more stable; sorted into four equal gates, so the index is relative within each strain
Conditions: san1∆
Measured Attribute: protein stability index
Answer as a number with no unit attached.

# example entries with known answers
protein stability index reading for DYAQLDHLVSSIPMGGQ [ARP9] : 2.36

Consider RTQPWSIMPDLYFYRDP [RPS0A] . Its measured protein stability index is 2.85

Per the records, this sequence ( GSKENYQELGSLQSSSQ [MED2] ) has protein stability index equal to 3.27

According to the records, this sequence IWLIKCCYFIEWKSNHK [SRB8] displays protein stability index of 2.55

Looking up AATMTSAPPPALPHVEI [RGR1] , I see its protein stability index listed as 2.49

Further cases:
protein stability index reading for CGAWEPAITIEKLKQFS [SIR3] : 2.58

Field protein stability index (entry IDVMKSQIIPLMKKACY [SNU114] ) reads 2.77

Noted for LSHGSLEHVLLVPTASF [FAS1] : its protein stability index reads 1.33

The recorded protein stability index for entry NNETEQLKAEEKKILNQ [SMC1] equals 3.13

GET /value?item= KMIDFATLSKLKKKYQI [SIR3] &field=protein stability index returns 3.53

// sample CSRIIKIDKPIRTQVNT [RGR1] , its protein stability index was 2.09

---

Assay: protein stability index of a GFP-peptide fusion (yeast GPS) (PSI 1-4); higher = more stable; sorted into four equal gates, so the index is relative within each strain
Settings: san1∆
Measured Attribute: protein stability index
Give a plain numeric answer without units written out.

Per the records, this sequence ( DEEMTISQKLHDSILHS [RRP43] ) has protein stability index equal to 2.82

The recorded protein stability index for SDKQRRLLAKDAMIAQR [DIS3] is 2.36

Quick note, protein stability index for KETTIEKLSSEIENLDK [YIL149C/MLP2] landed at 2.9

Reported protein stability index ( DLVLQILEDTATMSVFL [RRI2] ) = 2.98

Recorded protein stability index (sequence DSVTTETGKLLSGLAQR [BRN1] ): 2.66

According to the records, this sequence RNEQVTIELKNGTTVWG [SMD1] displays protein stability index of 1.49

Lab book: protein stability index of PNSGTATTGGFGANQAT [YGR119C/NUP57] noted as 2.12

---

Experiment: protein stability index of a GFP-peptide fusion (yeast GPS) (PSI 1-4); higher = more stable; sorted into four equal gates, so the index is relative within each strain
Settings: ubr1∆
Could you please classify the records by protein stability index using these ranges: low bracket: < 2; middle bracket: ≥ 2 and < 3; high bracket: ≥ 3

Here are 6 sequences together with their reported answers.
Request: Record GSNNAQTSRGLFGNNNT [YGL172W/NUP49] — which class?
Result: high bracket

Request: Which category does the recorded protein stability index put FQNSKSASLFKQRKNPR [RPL24A] in?
Result: low bracket

Request: Categorize the following entry: ADLSSSEEEEDEEENGS [SSN2]
Result: high bracket

Request: Any idea which band QEKQEQQEQDKKKKSNH [PRE6] is in?
Result: low bracket

Request: Bin this entry: TGEFDFEAAVKMSDGFN [RPT4]
Result: high bracket

Request: Sort into band: LNKDSTNEFVGSPSLTS [NUT1]
Result: middle bracket

More entries:
Request: For SADDDVNNGNIPSQRGT [SIR3] , which protein stability index bin applies?
Result: middle bracket

Request: Class? Entry: GYFIINGSEKVLIAQER [RPB2]
Result: middle bracket

Request: GET /class?item= LNIDWSTTGDNGELDLS [MED2]
Result: middle bracket
